Data origin: ChEMBL document CHEMBL4251703

Target: Signal transducer and activator of transcription 3 (Mus musculus) (UniProt P42227)
Sequence (P42227 whole entry): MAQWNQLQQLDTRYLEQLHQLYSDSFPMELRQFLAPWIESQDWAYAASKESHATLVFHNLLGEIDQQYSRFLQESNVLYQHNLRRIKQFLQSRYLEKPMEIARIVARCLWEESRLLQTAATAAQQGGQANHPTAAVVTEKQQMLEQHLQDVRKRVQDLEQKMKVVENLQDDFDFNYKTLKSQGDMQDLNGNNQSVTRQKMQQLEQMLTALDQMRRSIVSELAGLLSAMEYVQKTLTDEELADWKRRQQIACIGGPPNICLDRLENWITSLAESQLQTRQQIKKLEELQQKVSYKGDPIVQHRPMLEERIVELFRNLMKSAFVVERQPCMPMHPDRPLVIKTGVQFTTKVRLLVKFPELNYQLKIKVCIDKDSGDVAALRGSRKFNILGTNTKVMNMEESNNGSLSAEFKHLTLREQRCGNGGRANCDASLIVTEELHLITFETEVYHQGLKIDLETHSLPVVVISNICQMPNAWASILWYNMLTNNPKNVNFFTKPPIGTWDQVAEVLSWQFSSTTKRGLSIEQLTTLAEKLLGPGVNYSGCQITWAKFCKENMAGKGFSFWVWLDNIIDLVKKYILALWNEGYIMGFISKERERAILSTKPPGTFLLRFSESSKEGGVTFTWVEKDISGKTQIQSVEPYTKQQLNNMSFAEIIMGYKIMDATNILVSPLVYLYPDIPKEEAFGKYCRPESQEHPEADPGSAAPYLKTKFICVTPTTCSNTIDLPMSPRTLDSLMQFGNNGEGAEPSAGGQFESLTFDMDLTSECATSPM
Assay: Inhibition of STAT3 DNA binding activity in mouse NIH/3T3 nuclear extract preincubated for 30 mins followed by [32P]hSIE addition measured after 30 mins by electrophoretic mobility shift assay
Active and inactive are the calls of the source. The rule behind the calls is not given here.
A correct response names exactly one class from active, inactive

| mol smiles | assigned label |
| --- | --- |
| CN(CC(=O)N(Cc1ccc(C2CCCCC2)cc1)c1cccc(CC(=O)O)c1)S(=O)(=O)c1c(F)c(F)c(F)c(F)c1F | inactive |
| C[C@H](C(=O)N(Cc1ccc(C2CCCCC2)cc1)c1c(F)cc(C(=O)O)cc1F)N(C)S(=O)(=O)c1c(F)c(F)c(F)c(F)c1F | inactive |
| CN(CC(=O)N(Cc1ccc(C2CCCCC2)cc1)c1ccc(C(=O)O)c(O)c1)Cc1c(F)c(F)c(F)c(F)c1F | inactive |
| CN([C@H](CCO)C(=O)N(Cc1ccc(C2CCCCC2)cc1)c1ccc(C(=O)O)c(O)c1)S(=O)(=O)c1c(F)c(F)c(F)c(F)c1F | active |

[ask] How did this test come out for `C[C@H](C(=O)N(Cc1ccc(C2CCCCC2)cc1)c1ccc2cn[nH]c2c1)N(C)S(=O)(=O)c1c(F)c(F)c(F)c(F)c1F` ?
[reply] inactive

[ask] Tell me the recorded outcome of this test for `C[C@H](C(=O)N(Cc1ccc(C2CCOCC2)cc1)c1ccc(C(=O)[O-])c(O)c1)N(C)S(=O)(=O)c1c(F)c(F)c(F)c(F)c1F.[Na+]` .
[reply] inactive

[ask] Just curious, what result did `CN([C@H](CC(=O)O)C(=O)N(Cc1ccc(C2CCCCC2)cc1)c1ccc(C(=O)O)c(O)c1)S(=O)(=O)c1c(F)c(F)c(F)c(F)c1F` get here?
[reply] active

[ask] Hey, what did the test say about `Cc1cc(N(Cc2ccc(C3CCCCC3)cc2)C(=O)CN(C)S(=O)(=O)c2c(F)c(F)c(F)c(F)c2F)ccc1C(=O)O` ?
[reply] inactive

[ask] Lab log entry: `CN([C@H](CN)C(=O)N(Cc1ccc(C2CCCCC2)cc1)c1ccc(C(=O)O)c(O)c1)S(=O)(=O)c1c(F)c(F)c(F)c(F)c1F` — outcome as called in the assay?
[reply] active

[ask] Per the records of this test, what outcome belongs to `C[C@H](C(=O)N(Cc1ccc(C2CCCCC2)cc1)c1ccc(C(=O)O)c(O)c1)N(C)S(=O)(=O)c1c(F)c(F)c(F)c(F)c1F` ?
[reply] active

[ask] Record lookup: outcome of this test for `CN(CC(=O)N(Cc1ccc(C2CCC(F)(F)CC2)cc1)c1ccc(C(=O)O)c(O)c1)S(=O)(=O)c1c(F)c(F)c(F)c(F)c1F` ?
[reply] inactive

[ask] Which result was noted for this molecule in the test: `CN(CC(=O)N(Cc1ccc(C2CCCCCC2)cc1)c1ccc(C(=O)O)cc1)S(=O)(=O)c1c(F)c(F)c(F)c(F)c1F`
[reply] inactive

[ask] Which result was noted for this molecule in the test: `CN(CC(=O)N(Cc1ccc(C2CCCCC2)nc1)c1ccc(C(=O)O)c(O)c1)S(=O)(=O)c1c(F)c(F)c(F)c(F)c1F`
[reply] inactive

[ask] # fetch the recorded call for `CN(CC(=O)N(Cc1ccc(C2CCCCC2)cc1)c1ccc(C(=O)O)nc1)S(=O)(=O)c1c(F)c(F)c(F)c(F)c1F` here
[reply] inactive
